biological target: SGLT1 (Homo sapiens (Human)); assay: Activity assay of SGLT1: [14C] methyl α-D-glucopyranoside uptake in SGLT1 transiently transferred HEK293 cells; conditions: SGLT1 transiently transferred HEK293 cells, [14C] methyl α-D-glucopyranoside, 2 hours at 37° C.
Sequence (P13866 whole entry, species assumed): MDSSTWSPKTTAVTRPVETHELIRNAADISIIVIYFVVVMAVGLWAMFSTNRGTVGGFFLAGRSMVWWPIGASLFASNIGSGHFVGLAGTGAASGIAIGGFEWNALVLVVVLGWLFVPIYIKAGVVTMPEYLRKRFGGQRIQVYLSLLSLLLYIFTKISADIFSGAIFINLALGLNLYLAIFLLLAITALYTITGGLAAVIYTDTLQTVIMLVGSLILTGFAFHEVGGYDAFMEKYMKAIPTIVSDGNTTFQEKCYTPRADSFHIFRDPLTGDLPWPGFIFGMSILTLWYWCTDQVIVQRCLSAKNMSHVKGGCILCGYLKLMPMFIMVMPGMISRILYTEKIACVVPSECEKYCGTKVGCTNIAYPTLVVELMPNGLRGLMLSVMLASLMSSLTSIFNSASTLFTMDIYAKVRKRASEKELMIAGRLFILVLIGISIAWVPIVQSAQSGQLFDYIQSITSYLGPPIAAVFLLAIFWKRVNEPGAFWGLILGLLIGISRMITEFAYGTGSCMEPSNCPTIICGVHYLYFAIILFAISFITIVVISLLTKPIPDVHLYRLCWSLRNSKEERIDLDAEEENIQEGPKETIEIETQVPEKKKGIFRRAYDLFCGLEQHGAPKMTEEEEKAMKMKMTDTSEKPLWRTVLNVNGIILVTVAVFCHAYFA
observation type: IC50 (nM)
The answer is to be given in nM; state only the numeric part.

- smiles text: "Cc1ccc([C@]23OC[C@](CO)(O2)[C@@H](O)[C@H](O)[C@H]3O)cc1Cc1ccc2c(c1)OCCO2"
  observation type: "IC50"
  experimental result: 1.21
- smiles text: "OC[C@@]12CO[C@@](c3ccc(C4CC4)c(Cc4ccc5c(c4)OCCO5)c3)(O1)[C@H](O)[C@@H](O)[C@@H]2O"
  observation type: "IC50"
  experimental result: 15.7
- smiles text: "OC[C@@]12CO[C@@](c3ccc(Cl)c(Cc4ccc5c(c4)OCCO5)c3)(O1)[C@H](O)[C@@H](O)[C@@H]2O"
  observation type: "IC50"
  experimental result: 953
- smiles text: "OC[C@H]1S[C@@H](c2cc3c(c(Cc4ccc5c(c4)OCCO5)c2)OCC3)[C@H](O)[C@@H](O)[C@@H]1O"
  observation type: "IC50"
  experimental result: 2560
- smiles text: "CCc1ccc([C@]23OC[C@](CO)(O2)[C@@H](O)[C@H](O)[C@H]3O)cc1Cc1ccc2c(c1)OCCO2"
  observation type: "IC50"
  experimental result: 16.6

Which IC50 value is on record for `CCCc1ccc([C@]23OC[C@](CO)(O2)[C@@H](O)[C@H](O)[C@H]3O)cc1Cc1ccc2c(c1)OCCO2` ?
17.2

State the recorded IC50 for this entry: `Cc1ccc([C@@H]2S[C@H](CO)[C@@H](O)[C@H](O)[C@H]2O)cc1Cc1ccc2c(c1)OCCO2`
89

###

Examples of compounds with documented IC50 follow.
Molecular target: SGLT2 (Homo sapiens (Human), UniProt P31639)
Sequence (P31639 whole entry, species assumed): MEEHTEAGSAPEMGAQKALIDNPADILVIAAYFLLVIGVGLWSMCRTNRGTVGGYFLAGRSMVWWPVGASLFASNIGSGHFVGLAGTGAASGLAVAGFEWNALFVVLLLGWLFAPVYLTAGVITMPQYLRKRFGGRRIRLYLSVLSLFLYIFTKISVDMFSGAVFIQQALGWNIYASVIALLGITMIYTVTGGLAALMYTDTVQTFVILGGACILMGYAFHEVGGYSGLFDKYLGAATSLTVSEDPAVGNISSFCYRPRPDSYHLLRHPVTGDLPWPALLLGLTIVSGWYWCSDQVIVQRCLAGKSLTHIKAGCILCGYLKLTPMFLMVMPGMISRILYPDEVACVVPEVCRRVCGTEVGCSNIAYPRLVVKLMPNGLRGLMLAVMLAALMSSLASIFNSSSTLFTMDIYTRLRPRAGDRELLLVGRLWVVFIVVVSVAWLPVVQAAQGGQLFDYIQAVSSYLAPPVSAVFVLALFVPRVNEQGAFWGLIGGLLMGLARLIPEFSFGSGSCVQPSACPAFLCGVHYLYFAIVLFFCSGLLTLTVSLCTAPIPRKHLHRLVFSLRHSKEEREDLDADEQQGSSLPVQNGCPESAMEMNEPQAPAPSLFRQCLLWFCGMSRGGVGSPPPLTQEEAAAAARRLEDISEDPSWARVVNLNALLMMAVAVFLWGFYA
Assay: Activity assay of SGLT2: [14C] methyl α-D-glucopyranoside uptake in SGLT2 transiently transferred HEK293 cells
Settings: 2 hours at 37° C.
Description: Activity Assay of SGLT1 and SGLT2: The following method was used to determine the inhibitory activity of the compounds of the present invention on SGLT1 and SGLT2. The experimental method is summarized as follows: […] IC50 values of the compounds of various examples were calculated from the […] at different concentrations.
Return type: number; implicit unit nM.

- smiles text: "OC[C@@]12CO[C@@](c3ccc(C4CC4)c(Cc4ccc5c(c4)OCCO5)c3)(O1)[C@H](O)[C@@H](O)[C@@H]2O"
  observation type: "IC50"
  experimental result: 3.67

Dear colleague, I am looking for the recorded IC50 of the following compound: `CCCc1ccc([C@]23OC[C@](CO)(O2)[C@@H](O)[C@H](O)[C@H]3O)cc1Cc1ccc2c(c1)OCCO2`
1.82

So what's the measured IC50 for this one? `OC[C@H]1S[C@@H](c2cc3c(c(Cc4ccc5c(c4)OCCO5)c2)OCC3)[C@H](O)[C@@H](O)[C@@H]1O`
19.8

Which IC50 is reported for this compound? `Cc1ccc([C@]23OC[C@](CO)(O2)[C@@H](O)[C@H](O)[C@H]3O)cc1Cc1ccc2c(c1)OCCO2`
583
